The measured values listed here are drawn from patent US20210101928A1.

STUDY SYSTEM: GABAA receptor ([35S]-TBPS binding, rat brain cortical membranes)
METHOD SUMMARY: Steroid inhibition of [35S]-TBPS binding
EXPERIMENTAL PARAMETERS: Table II-2, 3 nM [35S]-TBPS, in the presence of 5 mM GABA, read-out: TBPS IC50
We begin with a simple list: items and their reported IC50.

MOLECULE	IC50
CC[C@]12CC[C@](O)(COC)C[C@@H]1CC[C@H]1[C@@H]3CC[C@H](C(=O)Nc4ccc(C#N)cc4C)[C@@]3(C)CC[C@@H]12	< 10 nM
CCOC[C@@]1(O)CC[C@@]2(CC)[C@@H](CC[C@H]3[C@@H]4CC[C@H](C(=O)N5CCCC[C@@H]5C)[C@@]4(C)CC[C@@H]32)C1	100 to 1000 nM
CC[C@@H]1CCCCN1C(=O)[C@H]1CC[C@H]2[C@@H]3CC[C@@H]4C[C@](C)(O)CC[C@]4(CC)[C@H]3CC[C@]12C [II-21a]	10 to 100 nM
CC[C@]12CC[C@@](C)(O)C[C@@H]1CC[C@H]1[C@@H]3CC[C@H](C(=O)CN4CCOCC4)[C@@]3(C)CC[C@@H]12	10 to 100 nM
CC[C@]12CC[C@](O)(COC)C[C@H]1CC[C@H]1[C@@H]3CC[C@H](C(=O)N4CCCC[C@@H]4C)[C@@]3(C)CC[C@@H]12	10 to 100 nM

* * *

Consider the following molecules and their measured pIC50 readings.
STUDY SYSTEM: GABAA receptor ([35S]-TBPS binding, rat brain cortical membranes)
METHOD SUMMARY: Steroid inhibition of [35S]-TBPS binding
EXPERIMENTAL PARAMETERS: Table II-2, 3 nM [35S]-TBPS, in the presence of 5 mM GABA, read-out: TBPS IC50
pIC50: −log10 of the molar value.
METRIC NAME: pIC50

MOLECULE	OBSERVED
CCOC[C@@]1(O)CC[C@@]2(CC)[C@H](CC[C@H]3[C@@H]4CC[C@H](C(C)=O)[C@@]4(C)CC[C@@H]32)C1 [II-C4]	7.00 to 8.00
CC[C@]12CC[C@@](C)(O)C[C@H]1CC[C@H]1[C@@H]3CC[C@H](C(=O)Cn4ccnn4)[C@@]3(C)CC[C@@H]12 [II-13a]	> 8.00
CCOC[C@@]1(O)CC[C@@]2(CC)[C@H](CC[C@H]3[C@@H]4CC[C@H](C(=O)Cn5ccnn5)[C@@]4(C)CC[C@@H]32)C1 [II-76]	7.00 to 8.00

* * *

STUDY SYSTEM: GABAA receptor ([35S]-TBPS binding, rat brain cortical membranes)
METHOD SUMMARY: Steroid inhibition of [35S]-TBPS binding
EXPERIMENTAL PARAMETERS: Table III-1 (biological data), 3 nM [35S]-TBPS, in the presence of 5 mM GABA, read-out: TBPS IC50
Listing: IC50 of selected compounds
METRIC NAME: IC50

GIVEN SMILES	STUDY SYSTEM	OBSERVED
CC[C@]12CC[C@H]3[C@@H](CC[C@@H]4C[C@](C)(O)CC[C@@]43C)[C@@H]1CC[C@@H]2C(=O)Cn1nnc(C)n1	GABAA receptor ([35S]-TBPS binding, rat brain cortical membranes)	< 10 nM
CC[C@]12CC[C@H]3[C@@H](CC[C@@H]4C[C@](C)(O)CC[C@@]43C)[C@@H]1CC[C@@H]2C(C)=O	GABAA receptor ([35S]-TBPS binding, rat brain cortical membranes)	< 10 nM
CC[C@]12CC[C@H]3[C@@H](CC[C@H]4C[C@@](O)(COC)CC[C@@H]43)[C@@H]1CC[C@@H]2C(=O)Cn1nnnc1C	GABAA receptor ([35S]-TBPS binding, rat brain cortical membranes)	100 to 1000 nM

* * *

STUDY SYSTEM: GABAA receptor ([35S]-TBPS binding, rat brain cortical membranes)
METHOD SUMMARY: Steroid inhibition of [35S]-TBPS binding
EXPERIMENTAL PARAMETERS: Table II-2, 3 nM [35S]-TBPS, in the presence of 5 mM GABA, read-out: TBPS IC50
pIC50: −log10 of the molar value.
Catalogue of pIC50 readings, one per entry.
METRIC NAME: pIC50

COMPOUND	STUDY SYSTEM	METRIC NAME	OBSERVED
CCOC[C@@]1(O)CC[C@@]2(CC)[C@H](CC[C@H]3[C@@H]4CC[C@H](C(N)=O)[C@@]4(C)CC[C@@H]32)C1 [II-48]	GABAA receptor ([35S]-TBPS binding, rat brain cortical membranes)	pIC50	6.00 to 7.00
CCOC[C@@]1(O)CC[C@@]2(CC)[C@H](CC[C@H]3[C@@H]4CC[C@H](C(=O)Nc5ccc(C#N)cc5C)[C@@]4(C)CC[C@@H]32)C1 [II-43]	GABAA receptor ([35S]-TBPS binding, rat brain cortical membranes)	pIC50	> 8.00
CC[C@]12CC[C@@](C)(O)C[C@H]1CC[C@H]1[C@@H]3CC[C@H](C(=O)Cn4nnc(C)n4)[C@@]3(C)CC[C@@H]12 [II-14]	GABAA receptor ([35S]-TBPS binding, rat brain cortical membranes)	pIC50	> 8.00
CC[C@]12CC[C@@](C)(O)C[C@H]1CC[C@H]1[C@@H]3CC[C@H](C(=O)Cn4nnnc4C)[C@@]3(C)CC[C@@H]12 [II-14a]	GABAA receptor ([35S]-TBPS binding, rat brain cortical membranes)	pIC50	> 8.00
CCOC[C@@]1(O)CC[C@@]2(CC)[C@H](CC[C@H]3[C@@H]4CC[C@H](C(=O)Nc5ccccc5C)[C@@]4(C)CC[C@@H]32)C1 [II-47]	GABAA receptor ([35S]-TBPS binding, rat brain cortical membranes)	pIC50	> 8.00
CC[C@]12CC[C@@](C)(O)C[C@@H]1CC[C@H]1[C@@H]3CC[C@H](C(=O)CO)[C@@]3(C)CC[C@@H]12 [II-A11]	GABAA receptor ([35S]-TBPS binding, rat brain cortical membranes)	pIC50	7.00 to 8.00

* * *

STUDY SYSTEM: GABAA receptor ([35S]-TBPS binding, rat brain cortical membranes)
METHOD SUMMARY: Steroid inhibition of [35S]-TBPS binding
EXPERIMENTAL PARAMETERS: Table II-2, 3 nM [35S]-TBPS, in the presence of 5 mM GABA, read-out: TBPS IC50
METRIC NAME: IC50

COMPOUND	OBSERVED
CCOC[C@@]1(O)CC[C@@]2(CC)[C@H](CC[C@H]3[C@@H]4CC[C@H](C(=O)Nc5ccccc5)[C@@]4(C)CC[C@@H]32)C1 [II-46]	10 to 100 nM
CC[C@]12CC[C@@](C)(O)C[C@H]1CC[C@H]1[C@@H]3CC[C@H](C(=O)Cn4nnc5cc(OC)ccc54)[C@@]3(C)CC[C@@H]12 (single isomer, unassigned) [II-M2a]	< 10 nM
CC[C@]12CC[C@@](C)(O)C[C@H]1CC[C@H]1[C@@H]3CC[C@H](C(=O)Cn4nccn4)[C@@]3(C)CC[C@@H]12 [II-13]	< 10 nM
CC[C@]12CC[C@@](C)(O)C[C@H]1CC[C@H]1[C@@H]3CC[C@H](C(=O)Cn4nnc5ccc(OC)cc54)[C@@]3(C)CC[C@@H]12 (single isomer, unassigned) [II-M2]	< 10 nM
CO[C@H](C)[C@]12CC[C@@](C)(O)C[C@H]1CC[C@H]1[C@@H]3CC[C@H](C(=O)Cn4nnnc4C)[C@@]3(C)CC[C@@H]12 [II-E13]	100 to 1000 nM

* * *

STUDY SYSTEM: GABAA receptor ([35S]-TBPS binding, rat brain cortical membranes)
METHOD SUMMARY: Steroid inhibition of [35S]-TBPS binding
EXPERIMENTAL PARAMETERS: Table I-1, 3 nM [35S]-TBPS, in the presence of 5 mM GABA, read-out: TBPS binding IC50
Description: [^35S]-t-Butylbicyclophosphorothionate (TBPS) binding assays using rat brain cortical membranes in the presence of 5 mM GABA has been described (Gee et al, J. Pharmacol. Exp. Ther. 1987, 241, 346-353; Hawkinson et al, Mol. Pharmacol. 1994, 46, 977-985; Lewin, A. H et al., Mol. Pharmacol. 1989, 35, 189-194). Briefly, cortices are rapidly removed following decapitation of carbon dioxide-anesthetized Sprague-Dawley rats (200-250 g). […]
pIC50: −log10 of the molar value.

COMPOUND	pIC50
CC(=O)[C@H]1CC[C@H]2[C@@H]3CC[C@]4(C)C[C@](C)(O)CC[C@]4(C)[C@H]3CC[C@]12C [I-B6]	6.00 to 7.00
C[C@@]1(O)CC[C@]2(C)[C@H]3CC[C@]4(C)[C@@H](C(=O)CNc5ccccc5)CC[C@H]4[C@@H]3CC[C@]2(C)C1 [I-A3]	6.00 to 7.00
C[C@@]1(O)CC[C@]2(C)[C@H]3CC[C@]4(C)[C@@H](C(=O)Cn5ncc6ccncc65)CC[C@H]4[C@@H]3CC[C@]2(C)C1 [I-A7]	6.00 to 7.00
